# measurement.notes: chemical genetic growth profiling, strain panel (AID 1159580);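 also: tested at 20 µM; growth read once vehicle control cultures reached saturation at 30 °C; 1 = growth at the plate median or of vehicle wells; lower values mean less growth of the strain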
# measurement.conditions: S. cerevisiae deletion strains, growth OD, locus YDR334W, strain swr1, stronger effect = lower value
Screen size: about 5,500 compounds; about 2,000 (36%) were called active. Inconclusive results (about 18%) are left out. Some of the results follow.
In this section we review reported normalized growth values for a set of compounds.
property.label: normalized growth

>>> measured("C=C[C@H]1CN2CC[C@H]1C[C@@H]2[C@@H](OC(=O)OCC)c1ccnc2ccc(OC)cc12")
0.995
>>> measured("COc1ccc(Cl)cc1C(=O)NCCc1ccc(S(=O)(=O)NC(=O)NC2CCCCC2)cc1")
0.993
>>> measured("CC1CCC2(OC1)OC1CC3C4CC[C@H]5C[C@@H](O)CC[C@]5(C)C4CC(=O)[C@]3(C)C1C2C (stereo partly drawn)")
1.01
>>> measured("C[C@@H]1CC[C@@]2(OC1)OC1CC3C4CC=C5C[C@@H](O)CC[C@]5(C)C4CC[C@]3(C)C1[C@@H]2C (stereo partly drawn)")
1.01
>>> measured("CN[C@@H]1C(O)[C@@H](O[C@@H]2[C@@H](O)[C@H](O[C@H]3OC(CN)=CC[C@H]3N)[C@@H](N)C[C@H]2N)OC[C@]1(C)O (stereo partly drawn)")
1.02
>>> measured("CC(=O)Oc1ccc2c(c1OC(C)=O)OCC1(O)Cc3c(cc(OC(C)=O)c(OC(C)=O)c3OC(C)=O)C21 (stereo not drawn)")
1.02
>>> measured("C=C1CCC2(OC1)OC1CC3C4CC=C5CC(O)CC(O)C5(C)C4CCC3(C)C1C2C (stereo not drawn)")
1.01
>>> measured("CC1CC[C@]2(NC1)O[C@H]1CC3C4CC[C@H]5C[C@@H](O)CC[C@]5(C)C4CC[C@]3(C)[C@H]1[C@@H]2C (stereo partly drawn)")
0.0978
